List of PDE4D2 %INH @ 10 μM values.
- TARGET_DESC: UniProt Q08499
- Sequence (Q08499 303-809): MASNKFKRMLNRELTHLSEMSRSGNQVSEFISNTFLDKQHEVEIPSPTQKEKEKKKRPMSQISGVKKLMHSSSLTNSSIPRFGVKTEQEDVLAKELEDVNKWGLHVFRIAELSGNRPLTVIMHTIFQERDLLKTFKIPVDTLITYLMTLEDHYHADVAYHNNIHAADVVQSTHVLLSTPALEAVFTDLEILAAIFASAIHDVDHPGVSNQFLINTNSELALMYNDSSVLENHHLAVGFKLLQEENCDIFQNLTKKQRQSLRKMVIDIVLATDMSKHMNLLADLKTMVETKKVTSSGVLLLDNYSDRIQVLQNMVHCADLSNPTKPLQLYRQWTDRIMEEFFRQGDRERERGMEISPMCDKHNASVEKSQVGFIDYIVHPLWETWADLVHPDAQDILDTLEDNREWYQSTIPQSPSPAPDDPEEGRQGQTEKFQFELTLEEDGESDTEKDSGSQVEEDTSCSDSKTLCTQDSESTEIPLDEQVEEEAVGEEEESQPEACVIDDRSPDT
- ASSAY_OVERVIEW: PDE4 inhibition assay (fluorescence polarization), PDE4D2
- Assay type: biochemical
- DETAILS: 10 μM
ATTRIBUTE_MEASURED: PDE4D2 %INH @ 10 μM (%)

MOLECULE	TARGET_DESC	ATTRIBUTE_MEASURED	RECORDED_MEASUREMENT
COc1ccc(C23C=CC(O)CC2N(C)CC3)cc1OC [Compound 020, (S, R, S) Mesembrenol]	UniProt Q08499	PDE4D2 %INH @ 10 μM	72
COc1ccc(C23C=CC(O)CC2N(C)CC3)cc1OC [Compound 023, (R, S, R) Mesembrenol]	UniProt Q08499	PDE4D2 %INH @ 10 μM	21
COc1ccc(C23C=CC(O)CC2N(C)CC3)cc1OC [Compound 021, (R, R, S) Mesembrenol]	UniProt Q08499	PDE4D2 %INH @ 10 μM	15
COc1ccc(C23C=CC(O)CC2N(C)CC3)cc1OC [Compound 024, (S, S, R) Mesembrenol]	UniProt Q08499	PDE4D2 %INH @ 10 μM	53
COc1ccc([C@@]23CC[C@@H](O)C[C@@H]2N(C)CC3)cc1OC	UniProt Q08499	PDE4D2 %INH @ 10 μM	4
COc1ccc([C@@]23CC[C@H](O)C[C@@H]2N(C)CC3)cc1OC	UniProt Q08499	PDE4D2 %INH @ 10 μM	3
